Heads up, these compounds all have MIC50 values measured for Clostridium dfficile.
Could you give me the number in µg/mL? Just the number is fine.

Sample CC[C@H]1OC(=O)[C@H](C)[C@@H](O[C@H]2C[C@@](C)(OC)[C@@H](O)[C@H](C)O2)[C@H](C)[C@@H](O[C@@H]2O[C@H](C)C[C@H](N(C)C)[C@H]2O)[C@](C)(O)C[C@@H](C)C(=O)[C@H](C)[C@@H](O)[C@]1(C)O ; MIC50 observed: 0.5

Form field MIC50, entry CC[C@H]1OC(=O)[C@H](C)[C@@H](O[C@H]2C[C@@](C)(OC)[C@@H](O)[C@H](C)O2)[C@H](C)[C@@H](O[C@@H]2O[C@H](C)C[C@H](N(C)C)[C@H]2O)[C@](C)(OC)C[C@@H](C)C(=O)[C@H](C)[C@@H](O)[C@]1(C)O : 0.5

# MIC50 (compound: CC[C@H]1OC(=O)[C@H](C)[C@@H](O[C@H]2C[C@@](C)(OC)[C@@H](O)[C@H](C)O2)[C@H](C)[C@@H](O[C@@H]2O[C@H](C)C[C@H](N(C)C)[C@H]2O)[C@](C)(O)C[C@@H](C)CN(C)[C@H](C)[C@@H](O)[C@]1(C)O ) is 2

The reported value for CO/N=C1\CN(c2nc3c(cc2F)c(=O)c(C(=O)O)cn3C2CC2)CC1CN (racemic) in terms of MIC50 is 2
